system: T-47D breast; assay: NCI tumour cell line growth inhibition, 48 h
Readings of TGI for the listed molecules

Worked examples follow.
Molecule | TGI
Cc1ccc(C(=O)O)c(/C=C2\Cc3ccc(C)cc3C2=O)c1 | > 100 µM
CN(c1ccc(NC(=O)Nc2c(Cl)cccc2Cl)cc1)c1ccnc(Nc2cccc(CS(C)(=O)=O)c2)n1 | 13.2 µM
CCN1CCCc2cc3c(C(F)(F)F)cc(=O)oc3cc21 | > 100 µM
CC(C)NC(=O)OCc1c2c(n(C)c1COC(=O)NC(C)C)-c1cc(Cl)c(Cl)cc1CC2 | > 100 µM
O=C(NN1C(=O)C(Cl)C1c1ccc(Cl)cc1)c1c(Cl)c(Cl)c(Cl)c(Cl)c1-c1nc2ccccc2[nH]1 (stereo unspecified) | 25 µM

Exam item: # lookup: TGI of CC1C2CC(C(S(=O)(=O)O)C2=O)C1(C)C (stereo unspecified)
Marked response: > 100 µM

Exam item: # lookup: TGI of ONC1=Nc2cc(Cl)ccc2C(=S)N2CSCC12 (stereo unspecified)
Marked response: > 100 µM
